Experiment: growth of efflux-deficient E. coli DRC39 – strain DRC39, OD650, 48 h, E. coli filamentation inducers, primary screen (AID 1179);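 further: screen aims at cell division blockers that make cells filament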
Conditions: E. coli DRC39 delta-acrAB growth, higher = more signal, called active from +8 up or from −8 down
property.label: z-score
Format: numeric value only, no unit, no commentary.

(Q) Entry Cc1ccc(S[C@]2(C(=O)NCC(C)C)CC(=O)N(Cc3cc(C(F)(F)F)cc(C(F)(F)F)c3)[C@@H]2c2ccc(CO)cc2)cc1 : reported z-score = ?
(A) -0.882

(Q) Would you kindly repeat that for CCCC[C@@H]1C[C@H]1[C@@H](NC(=O)c1cccnc1)c1ccc(Cl)cc1 ?
(A) -0.0491

(Q) Would you kindly repeat that for CCOC(=O)C1=CC[C@@H](c2ccccc2)N(S(=O)(=O)c2ccc(C)cc2)[C@H]1c1ccc(CC)cc1 ?
(A) 0.629

(Q) Would you kindly repeat that for CN(C)CCCCCCNC(=O)[C@@H]1C[C@@H]2C(=O)N[C@@H](CCCC[N+](C)(C)C)C(=O)N2[C@@H]1c1ccc(O)cc1 ?
(A) 0.575

(Q) Would you kindly repeat that for CO[C@H]1O[C@H](CO)[C@@H](OC(=O)Nc2ccc(Oc3ccccc3)cc2)[C@H](OC(=O)Nc2ccc3c(c2)OCO3)[C@@H]1OC(=O)Nc1ccc2c(c1)OCO2 ?
(A) -0.0218

(Q) Would you kindly repeat that for [N-]=[N+]=Nc1ccccc1C[C@@]1(C(=O)N2CCCCC2)N=C(c2ccc(OCCCO)cc2)O[C@@H]1c1ccccc1 ?
(A) 0.887

(Q) Would you kindly repeat that for Cc1ccc(S[C@]2(C(=O)O)CC(=O)N(C(C)C)[C@@H]2c2ccc(CO)cc2)cc1 ?
(A) 1.93

(Q) Would you kindly repeat that for C=C(CCCC)C(=O)CC[C@H](OC(=O)c1cccnc1)c1ccc(OCCO)cc1 ?
(A) -0.855

(Q) Would you kindly repeat that for CCOC(=O)C[C@H]1[C@H](OC(=O)c2ccc(-c3ccccc3)cc2)[C@@H](NC(=O)c2ccccc2)c2cc(OCCCO)ccc2N1C(=O)c1ccc2ccccc2n1 ?
(A) 0.256

(Q) Would you kindly repeat that for CO[C@H]1O[C@H](CO)[C@@H](OC(=O)Nc2ccccc2)[C@@H]2OC(=O)[C@@H](Cc3ccc4ccccc4c3)C/C=C/C[C@H](Cc3ccc4ccccc4c3)C(=O)O[C@@H]12 ?
(A) 1.09
